# Read-out: TIMP metallopeptidase inhibitor 2 (TIMP2), TIMP2 (gene 7077)
# PROCEDURE_DETAILS: BSK_KF3CT_TIMP2: BioMAP Diversity Plus: KF3CT Assay for TIMP metallopeptidase inhibitor 2 (TIMP2) Biomarker Activity (AID 2283071)
# CONDITIONS: primary human keratinocytes with fibroblasts; actives raise or lower the signal
# Description: BSK_KF3CT is a cell-based, multiplexed-readout assay that uses keratinocytes and foreskin fibroblasts, a human skin primary cell co-culture, with measurements taken at 24 hours after chemical dosing in a 96-well plate.BSK_KF3CT_TIMP2 is an assay component measured in the BSK_KF3CT assay. It measures TIMP-2 antibody related to regulation of gene expression using ELISA technology.Data from the assay component BSK_KF3CT_TIMP2 was analyzed into 1 assay endpoint. […]
Active and inactive are the calls of the source. How the source made its calls: active means hit-call score of the fitted dose curve at least 0.9, where 1 is the maximum; inactive means score below 0.9.
Write down the outcome that applies. Available outcomes: Y (active), N (inactive)

Study these solved cases before continuing.
[
  {
    "COMPOUND": "CCC(C)(C)C1CCC(O)CC1 (configuration not stated)",
    "ASSIGNED_CATEGORY": "N"
  },
  {
    "COMPOUND": "NCC(F)(F)C(F)(F)C(F)(F)C(F)(F)C(F)(F)C(F)(F)C(F)(F)F",
    "ASSIGNED_CATEGORY": "N"
  },
  {
    "COMPOUND": "O=c1c(-c2ccc(O)cc2)coc2cc(O)ccc12",
    "ASSIGNED_CATEGORY": "N"
  }
]

input: GET /call?item= CC(O)CO (configuration not stated) returns the recorded outcome of this test.
output: N

input: GET /call?item= `Oc1cccc(O)c1` returns the recorded outcome of this test.
output: N

input: GET /call?item= `CC(C)CCCCCCOC(=O)CCCCC(=O)OCCCCCCC(C)C` returns the recorded outcome of this test.
output: N

input: GET /call?item= `CC(=O)NC1(c2cccc(F)c2)CCN(CC[C@@]2(c3ccc(Cl)c(Cl)c3)CN(c3ccccc3)C(=O)CO2)CC1` returns the recorded outcome of this test.
output: N

input: GET /call?item= `CC[C@H](C)[C@@H](C(=O)O)n1sc2ccccc2c1=O` returns the recorded outcome of this test.
output: N

input: GET /call?item= `COC(=O)CCCCC(=O)OC` returns the recorded outcome of this test.
output: N

input: GET /call?item= CCc1ccc(CCOc2ccc(CC3SC(=O)NC3=O)cc2)nc1 (configuration not stated) returns the recorded outcome of this test.
output: N

input: GET /call?item= CCCCC(CC)COC(=O)CCCCC(=O)OCc1ccccc1 (configuration not stated) returns the recorded outcome of this test.
output: N

input: GET /call?item= `CC1=C(/C=C/C(C)=C/C=C/C(C)=C/C(=O)O)C(C)(C)CCC1` returns the recorded outcome of this test.
output: Y

----------
# Read-out: Thyroid Hormone Responsive (THRSP), THRSP (gene 7069)
# PROCEDURE_DETAILS: LTEA_HepaRG_THRSP: Life Technologies and Expression Analysis (LTEA) Assay for Thyroid Hormone Responsive (THRSP) using HepaRG (AID 2283536)
# CONDITIONS: mRNA level, 48 h; actives raise or lower the signal
The source made the active and inactive calls. How the source made its calls: active means hit-call score of the fitted dose curve at least 0.9, where 1 is the maximum; inactive means score below 0.9.
Write down the outcome that applies. Available outcomes: active, inactive

input: GET /call?item= `O=c1c(-c2ccc(O)cc2)coc2cc(O)ccc12` returns the recorded outcome of this test.
output: inactive

input: GET /call?item= `CCCCCCCCC(=O)O` returns the recorded outcome of this test.
output: inactive

input: GET /call?item= COCC(C)OCC(C)O (centres undefined) returns the recorded outcome of this test.
output: inactive

input: GET /call?item= `ClC1=C(Cl)C(Cl)(Cl)C(Cl)=C1Cl` returns the recorded outcome of this test.
output: inactive

input: GET /call?item= `CN1CCN(c2ccccc2/C=C2\SCCN(c3ccc(Cl)c(Cl)c3)C2=O)CC1` returns the recorded outcome of this test.
output: inactive

Hello, the source for this data is PubChem BioAssay (EPA / NIEHS), in case you need it.
